All figures here come from patent US20250376519A1.

target-under-test: T1, human DLL3 on cells (human, UniProt Q9NYJ7 27-618)
T1 construct: Endogenous on H1184 and SHP77; Cell line is named under assay; also called H1184; DLL3/H82
T1 sequence: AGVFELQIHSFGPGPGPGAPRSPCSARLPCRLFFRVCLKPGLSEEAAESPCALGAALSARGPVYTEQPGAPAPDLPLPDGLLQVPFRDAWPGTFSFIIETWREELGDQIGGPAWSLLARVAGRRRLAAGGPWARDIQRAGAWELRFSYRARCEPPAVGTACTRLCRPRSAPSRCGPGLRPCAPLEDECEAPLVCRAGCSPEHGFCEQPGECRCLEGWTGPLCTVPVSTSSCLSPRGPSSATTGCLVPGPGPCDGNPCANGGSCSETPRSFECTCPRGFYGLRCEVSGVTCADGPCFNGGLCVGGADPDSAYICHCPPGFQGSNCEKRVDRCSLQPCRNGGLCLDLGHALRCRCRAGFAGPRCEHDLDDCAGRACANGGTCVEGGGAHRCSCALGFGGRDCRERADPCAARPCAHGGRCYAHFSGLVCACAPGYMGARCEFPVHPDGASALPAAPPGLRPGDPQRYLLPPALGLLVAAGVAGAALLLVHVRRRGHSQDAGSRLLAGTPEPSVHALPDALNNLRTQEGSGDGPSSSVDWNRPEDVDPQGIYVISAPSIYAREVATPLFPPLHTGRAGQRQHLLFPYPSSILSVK
assay-remarks: flow cytometry, H1184 cells
Protocol: The plates were centrifuged at 300 g for 5 min, and the supernatant was removed. Different concentrations of test antibodies were added at 100 μL/well. The plates were incubated in the dark in a refrigerator at 4° C. for 1 h. […] After 3 centrifugal washes at 300 g, the geometric mean fluorescence intensity was measured on an Invitrogen flow cytometer, and the EC50 values for the binding of the antibodies to DLL3-expressing cells were calculated.
hey, just use MET if measured Emax is less than 2000, otherwise NOT MET

binder: hu98L1H1 (antibody, human IgG1, kappa, V domains shown) VH: EVQLVESGGGLVQPGGSLRLSCAASGFTFSDYGIHWVRQAPGKGLEWVAYISSGGYTIYYADTVKGRFTISRDNAKNSLYLQMNSLRAEDTAVYYCARGDYDDIFYTMDYWGQGTTVTVSS VL: DIQMTQSPSSLSASVGDRVTITCRASRDITKFLNWYQQKPGKAPKLLIYYTSRLHSGVPSRFSGSGSGTDFTLTISSLQPEDFATYYCQQGNTLPWTFGGGTKVEIKR
assigned-class: NOT MET

binder: hu6L2H2 (antibody, human IgG1, kappa, V domains shown) VH: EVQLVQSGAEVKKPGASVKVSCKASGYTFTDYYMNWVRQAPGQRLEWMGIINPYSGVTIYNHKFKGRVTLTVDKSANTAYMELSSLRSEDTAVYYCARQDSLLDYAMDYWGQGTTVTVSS VL: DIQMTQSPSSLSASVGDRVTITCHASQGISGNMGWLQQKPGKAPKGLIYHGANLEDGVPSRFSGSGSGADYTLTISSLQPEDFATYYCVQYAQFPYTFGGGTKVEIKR
assigned-class: NOT MET

binder: hu98L3H5 (antibody, human IgG1, kappa, V domains shown) VH: EVQLVESGGGLVQPGGSLRLSCAASGFTFSDYGMHWVRQAPGKGLEWVAYISSGGYTSYYADTVKGRFTISRDNAKNSLYLQMNSLRAEDTAVYYCARGDYEDIFYTMDYWGQGTTVTVSS VL: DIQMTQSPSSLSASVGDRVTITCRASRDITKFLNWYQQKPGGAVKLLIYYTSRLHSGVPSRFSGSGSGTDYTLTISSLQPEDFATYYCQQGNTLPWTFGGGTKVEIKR
assigned-class: MET

binder: hu6L2H5 (antibody, human IgG1, kappa, V domains shown) VH: EVQLVQSGSELKKPGASVKVSCKASGYTFTDYYMNWVRQAPGQGLEWMGIINPYSGVTIYNHKFKGRFVLSVDKSVSTAYLQISSLKAEDTAVYYCARQDSLLDYAMDYWGQGTTVTVSS VL: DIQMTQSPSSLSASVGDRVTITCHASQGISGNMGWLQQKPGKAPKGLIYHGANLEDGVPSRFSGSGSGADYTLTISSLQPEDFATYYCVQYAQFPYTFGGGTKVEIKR
assigned-class: NOT MET

binder: hu6L4H13 (antibody, human IgG1, kappa, V domains shown, also called hu6L4VH13) VH: EVQLVQSGSELKKPGASVKVSCKASGYTFTDYYMNWVKQAPGQGLEWMGIINPYSGVTIYNHKFKGRFALSVDKSSNTAYLQISSLKAEDTAVYYCARQDSLLDYAMDYWGQGTTVTVSS VL: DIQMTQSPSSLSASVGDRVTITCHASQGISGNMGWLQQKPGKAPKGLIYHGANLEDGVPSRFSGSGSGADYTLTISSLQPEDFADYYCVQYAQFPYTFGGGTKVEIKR
assigned-class: NOT MET
